The following binders are shown together with reported MRC5 IC50 values.
- Target: Recombinant human IL-1β (BioLegend 579404) (human, UniProt P01584 117-269)
- Assay Info: cell-based or functional assay
Starred links: 1 amine or outer side, 2 acyl side, 3 side chain; linkers in the order of their positions; H or OH if unused. Non-standard residues stand in square brackets, D forms with d. No end group written: not given here. dPro(4R-(4-pyridylmethyl)) = O=C(O)[C@H]1C[C@@H](Cc2ccncc2)CN1; Ala(piperidin-4-yl) = O=C([C@H](CC1CCN([*:3])CC1)N[*:1])[*:2]; Trp(βS-Me,4-F) = C[C@@H](c1c[nH]c2cccc(F)c12)[C@H](N)C(=O)O; Bip(4'-COOH) = N[C@@H](Cc1ccc(-c2ccc(C(=O)O)cc2)cc1)C(=O)O; Ala(1-bicyclo(1.1.1)pentyl) = N[C@@H](CC12CC(C1)C2)C(=O)O; dPro(4R-Bzl(4-F)) = O=C(O)[C@H]1C[C@@H](Cc2ccc(F)cc2)CN1; Ala(pyrimidin-5-yl) = N[C@@H](Cc1cncnc1)C(=O)O; Phe(4-COOH) = N[C@@H](Cc1ccc(C(=O)O)cc1)C(=O)O; Pro(cis-4-F) = O=C(O)[C@@H]1C[C@H](F)CN1; Ala(4-THP) = N[C@@H](CC1CCOCC1)C(=O)O; cisHyp = O=C(O)[C@@H]1C[C@H](O)CN1; d(αMeD) = C[C@@](N)(CC(=O)O)C(=O)O; 4Pal = N[C@@H](Cc1ccncc1)C(=O)O; αMeD = C[C@](N)(CC(=O)O)C(=O)O; d(αMeS) = C[C@@](N)(CO)C(=O)O; Dab = NCC[C@H](N)C(=O)O; Aib = CC(C)(N)C(=O)O
Give the value, in units of nM, as a plain number.

{"Binder": "cyclo([Bip(4'-COOH)][4Pal][Phe(4-COOH)]G[Pro(cis-4-F)][Trp(βS-Me,4-F)][Aib]SW[αMeDab][Ala(pyrimidin-5-yl)]Q[Dab]G[dPro(4R-Bzl(4-F))]) (ring closure inferred; not fully specified (bridges); printed as Bip4CO2H-4Pal-Phe4COOH-G-Proc4F-SbMeW4F-Aib-S-W-aMeDab-PyrimAla-Q-Dab-G-dProc4Bn4F) [SEQ ID NO: 130]", "Result Type": "MRC5 IC50", "Test Result": 0.039}
{"Binder": "cyclo([Bip(4'-COOH)][Ala(1-bicyclo(1.1.1)pentyl)][Phe(4-COOH)]G[cisHyp][Trp(βS-Me,4-F)][Aib]SW[d(αMeD)][Ala(pyrimidin-5-yl)]QSG[dPro(4R-(4-pyridylmethyl))]) (ring closure inferred) [SEQ ID NO: 157]", "Result Type": "MRC5 IC50", "Test Result": 0.038}
{"Binder": "[Bip(4'-COOH)][Ala(1-bicyclo(1.1.1)pentyl)][Phe(4-COOH)]G[Pro(cis-4-F)][Trp(βS-Me,4-F)][Aib]SW[d(αMeS)][Ala(piperidin-4-yl)]QSG[dPro(4R-(4-pyridylmethyl))] (lactam (positions not given here); also: macrolactam ring, closure sites not given here) [SEQ ID NO: 181]", "Result Type": "MRC5 IC50", "Test Result": 0.021}

Give its MRC5 IC50 value. Item: [Bip(4'-COOH)][4Pal][Phe(4-COOH)]G[Pro(cis-4-F)][Trp(βS-Me,4-F)][Aib]SW[αMeD][Ala(4-THP)]QSG[dPro(4R-(4-pyridylmethyl))] (lactam (positions not given here); also: macrolactam ring, closure sites not given here) [SEQ ID NO: 189]
0.016
